Biological target: δ receptor (Mus musculus, UniProt P32300)
Construct: The vas deferens extracted from the animal was suspended in a Magnus tube; from tissue; host or cells: mouse (male ddy) vas deferens
Sequence (P32300 whole entry): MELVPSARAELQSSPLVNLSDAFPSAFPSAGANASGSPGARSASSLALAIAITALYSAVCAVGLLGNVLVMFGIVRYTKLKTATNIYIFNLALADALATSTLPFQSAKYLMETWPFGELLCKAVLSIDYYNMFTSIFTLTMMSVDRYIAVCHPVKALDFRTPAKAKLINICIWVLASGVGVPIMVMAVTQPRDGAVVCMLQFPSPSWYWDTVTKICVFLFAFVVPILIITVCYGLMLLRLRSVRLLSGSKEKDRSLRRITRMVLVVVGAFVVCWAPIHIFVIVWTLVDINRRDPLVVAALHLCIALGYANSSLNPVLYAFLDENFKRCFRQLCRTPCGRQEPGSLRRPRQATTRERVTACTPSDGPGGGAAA
Parameters: species or system male ddy mouse
Structures can show the parent of a compound that is named as a salt.
Attribute: Ke, NTI
Express the reported value numerically, then name its unit.

Record excerpt, results attached:
CN(C(=O)/C=C/c1ccoc1)[C@H]1CC[C@@]2(O)[C@H]3Cc4ccc(O)c5c4[C@@]2(CCN3CC2CC2)[C@H]1O5 : 15.6 nM
CN(C(=O)/C=C/c1ccc(Cl)cc1)[C@@H]1CC[C@@]2(O)[C@H]3Cc4ccc(O)c5c4[C@@]2(CCN3CC2CC2)[C@H]1O5 [Compound 152, hydrochloride] : 35.1 nM
CN(C(=O)/C=C/c1cccc(Br)c1)[C@@H]1CC[C@@]2(O)[C@H]3Cc4ccc(O)c5c4[C@@]2(CCN3CC2CC2)[C@H]1O5 [Compound 151, hydrobromide] : 1.65 nM

I looked up CN(C(=O)/C=C/c1cccc(Cl)c1)[C@@H]1CC[C@@]2(O)[C@H]3Cc4ccc(O)c5c4[C@@]2(CCN3CC2CC2)[C@H]1O5 [Compound 154, hydrochloride] and its Ke, NTI for δ receptor (Mus musculus, UniProt P32300) was 31.5 nM

* * *

Molecular target: κ receptor (Mus musculus, UniProt P33534)
Construct: from tissue; host or cells: mouse (male ddy) vas deferens
Sequence (P33534 whole entry): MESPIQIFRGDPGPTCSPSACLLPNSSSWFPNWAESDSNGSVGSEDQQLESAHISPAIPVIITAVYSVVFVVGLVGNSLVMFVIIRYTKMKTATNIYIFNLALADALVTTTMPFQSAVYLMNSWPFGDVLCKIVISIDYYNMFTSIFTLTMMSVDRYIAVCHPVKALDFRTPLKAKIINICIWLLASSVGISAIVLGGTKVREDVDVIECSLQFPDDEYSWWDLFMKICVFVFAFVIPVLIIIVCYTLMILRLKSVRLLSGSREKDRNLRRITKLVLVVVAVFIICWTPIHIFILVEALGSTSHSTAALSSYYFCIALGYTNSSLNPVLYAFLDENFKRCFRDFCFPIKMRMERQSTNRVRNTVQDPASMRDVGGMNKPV
Assay: Opioid activity test using an extracted mouse vas deferens preparation, Ke with norBNI
Set-up: species or system male ddy mouse
Conditions: κ, norBNI added
Could you mark each record 1 if its Ke, norBNI falls strictly under 0.8 nM, and 0 if it equals or exceeds it?

Please check: Ke, norBNI for CCCCCC(=O)N(C)[C@@H]1CC[C@@]2(O)[C@H]3Cc4ccc(O)c5c4[C@@]2(CCN3CC2CC2)[C@H]1O5 , strictly under 0.8 nM or not?
1

Consider the compound CN(C(=O)OCc1ccc([N+](=O)[O-])cc1)[C@H]1CC[C@@]2(O)[C@H]3Cc4ccc(O)c5c4[C@@]2(CCN3CC2CC2)[C@H]1O5 . Is its Ke, norBNI strictly less than 0.8 nM?
0

Field: below-cutoff. Rule: recorded Ke, norBNI strictly less than 0.8 nM. Subject: CN(C(=O)Cc1ccc(Cl)c(Cl)c1)[C@H]1CC[C@@]2(O)[C@H]3Cc4ccc(O)c5c4[C@@]2(CCN3CC2CC2)[C@H]1O5
1

# TODO verify Ke, norBNI < 0.8 nM strictly for this compound: CN(C(=O)CC(=O)c1ccccc1)[C@@H]1CC[C@@]2(O)[C@H]3Cc4ccc(O)c5c4[C@@]2(CCN3CC2CC2)[C@H]1O5
1

Item CN(C(=O)/C=C/C1CCCCC1)[C@@H]1CC[C@@]2(O)[C@H]3Cc4ccc(O)c5c4[C@@]2(CCN3CC2CC2)[C@H]1O5 : Ke, norBNI beneath 0.8 nM, strictly?
0

In the record for Cc1cccc(/C=C/C(=O)N(C)[C@@H]2CC[C@@]3(O)[C@H]4Cc5ccc(O)c6c5[C@@]3(CCN4CC3CC3)[C@H]2O6)c1 , is Ke, norBNI less than 0.8 nM?
0

Hello, I'm reviewing records and need to know if Ke, norBNI of CC(=O)Oc1ccc2c3c1O[C@H]1[C@H](N(C)C(=O)/C=C/c4ccccc4)CC[C@@]4(O)[C@@H](C2)N(CC2CC2)CC[C@]314 is below 0.8 nM. Could you check?
0

* * *

Listed next: entries and their corresponding Ke, Naloxone.
Target: μ receptor (Mus musculus, UniProt P42866)
Construct: naloxone as mu antagonist (printed 'agonist')
Sequence (P42866 whole entry): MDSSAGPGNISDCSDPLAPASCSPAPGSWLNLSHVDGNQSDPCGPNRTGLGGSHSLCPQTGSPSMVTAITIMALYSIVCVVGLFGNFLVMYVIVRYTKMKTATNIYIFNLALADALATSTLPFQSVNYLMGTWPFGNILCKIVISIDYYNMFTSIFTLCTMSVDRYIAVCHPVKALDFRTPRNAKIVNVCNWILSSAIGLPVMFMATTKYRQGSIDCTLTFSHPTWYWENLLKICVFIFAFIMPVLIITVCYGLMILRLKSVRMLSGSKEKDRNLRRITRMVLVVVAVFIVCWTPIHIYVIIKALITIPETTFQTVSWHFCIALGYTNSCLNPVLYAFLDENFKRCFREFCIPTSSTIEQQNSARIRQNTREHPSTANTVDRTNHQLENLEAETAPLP
Test: Opioid activity test using an extracted mouse vas deferens preparation, Ke with naloxone
Parameters: species or system male ddy mouse
Conditions: naloxone added
Give the value in nM but do not write nM after it.

Worked set:
CCCCOC(=O)N(C)[C@@H]1CC[C@@]2(O)[C@H]3Cc4ccc(O)c5c4[C@@]2(CCN3CC2CC2)[C@H]1O5 : 21.3
CC(=O)Oc1ccc2c3c1O[C@H]1[C@H](N(C)C(=O)/C=C/c4cccc(C(F)(F)F)c4)CC[C@@]4(O)[C@@H](C2)N(CC2CC2)CC[C@]314 : 142
Cc1cccc(/C=C/C(=O)N(C)[C@@H]2CC[C@@]3(O)[C@H]4Cc5ccc(O)c6c5[C@@]3(CCN4CC3CC3)[C@H]2O6)c1 : 1780
COc1cccc(C#CC(=O)N(C)[C@@H]2CC[C@@]3(O)[C@H]4Cc5ccc(O)c6c5[C@@]3(CCN4CC3CC3)[C@H]2O6)c1.O=C(O)C(O)C(O)C(=O)O : 19.6
CN(C(=O)CCc1ccccc1)[C@H]1CC[C@@]2(O)[C@H]3Cc4ccc(O)c5c4[C@@]2(CCN3CC2CC2)[C@H]1O5 : 800

// below: Ke, Naloxone requested for another compound
Field Ke, Naloxone (entry CN(C(=O)OCc1ccccc1)[C@H]1CC[C@@]2(O)[C@H]3Cc4ccc(O)c5c4[C@@]2(CCN3CC2CC2)[C@H]1O5 ) reads 186

* * *

Test system: cultured nerve cells (cerebral cortex)
Assay: cells
Conditions: Rattus norvegicus, Cerebral cortex neuron, 24 h, read-out: ED50 (protection against glutamic acid toxicity)
Where a name gives a salt, the structure may show the parent alone.
Label met when EC50 < 0.6 µM; otherwise not met.

Completed entries (count: 5):
CC(C)CN(C(=O)Cc1ccc(Cl)c(Cl)c1)[C@H]1CC[C@@]2(O)[C@H]3Cc4ccc(O)c5c4[C@@]2(CCN3CC2CC2)[C@H]1O5 : met
CN(C(=O)CCCc1ccccc1)[C@H]1CC[C@@]2(O)[C@H]3Cc4ccc(O)c5c4[C@@]2(CCN3CC2CC2)[C@H]1O5 : not met
CN(C(=O)/C=C/c1cccc([N+](=O)[O-])c1)[C@@H]1CC[C@@]2(O)[C@H]3Cc4ccc(O)c5c4[C@@]2(CCN3CC2CC2)[C@H]1O5 : not met
CN(CCc1ccc(Cl)c(Cl)c1)[C@H]1CC[C@@]2(O)[C@H]3Cc4ccc(O)c5c4[C@@]2(CCN3CC2CC2)[C@H]1O5 [Compound 135, hydrochloride] : met
CN(C(=O)Cc1ccccc1)[C@H]1CC[C@@]2(O)[C@H]3Cc4ccc(O)c5c4[C@@]2(CCN3CC2CC2)[C@H]1O5 : not met

# strict comparison: is reported EC50 < 0.6 µM? input = CN(CCc1ccc(Cl)c(Cl)c1)[C@@H]1CC[C@@]2(O)[C@H]3Cc4ccc(O)c5c4[C@@]2(CCN3CC2CC2)[C@H]1O5 [Compound 136, hydrochloride]
not met

* * *

Measured Ke, NTI, listed per entry for reference.
Target: δ receptor (Mus musculus, UniProt P32300)
Construct: The vas deferens extracted from the animal was suspended in a Magnus tube; from tissue; host or cells: mouse (male ddy) vas deferens
Design: species or system male ddy mouse
Details: mouse vas deferens, δ, NTI added
Return type: number; implicit unit nM.

CN(C(=O)CSc1ccccc1)[C@H]1CC[C@@]2(O)[C@H]3Cc4ccc(O)c5c4[C@@]2(CCN3CC2CC2)[C@H]1O5 : 135
CC(C)CN(C(=O)/C=C/c1cccc(C(F)(F)F)c1)[C@@H]1CC[C@@]2(O)[C@H]3Cc4ccc(O)c5c4[C@@]2(CCN3CC2CC2)[C@H]1O5 : 20.5
CN(C(=O)/C=C/c1cccc(F)c1)[C@@H]1CC[C@@]2(O)[C@H]3Cc4ccc(O)c5c4[C@@]2(CCN3CC2CC2)[C@H]1O5 : 276

Form: compound = COc1cccc(/C=C/C(=O)N(C)[C@@H]2CC[C@@]3(O)[C@H]4Cc5ccc(O)c6c5[C@@]3(CCN4CC3CC3)[C@H]2O6)c1 ; Ke, NTI = 96.9

Measured Ke, NTI, CN(C(=O)OCc1ccc([N+](=O)[O-])cc1)[C@H]1CC[C@@]2(O)[C@H]3Cc4ccc(O)c5c4[C@@]2(CCN3CC2CC2)[C@H]1O5 : 22.5

According to the records, this compound Cc1cccc(C#CC(=O)N(C)[C@@H]2CC[C@@]3(O)[C@H]4Cc5ccc(O)c6c5[C@@]3(CCN4CC3CC3)[C@H]2O6)c1.Cl displays Ke, NTI of 17.57

* * *

Test: Diuretic action (urine output for 5 hours after physiological saline loading in rats)
Type: in vivo, male Wistar rats
Conditions: Rattus norvegicus, sc, dose giving urine output of 500 (non-dosed group = 100), 5 hours after saline 20 ml/kg p.o.
MEASUREMENT_TYPE: ED (500% urine output) (mg/kg)
Just the number in mg/kg, nothing appended.

CN(C(=O)/C=C/c1cccc(F)c1)[C@H]1CC[C@@]2(O)[C@H]3Cc4ccc(O)c5c4[C@@]2(CCN3CC2CC2)[C@H]1O5 [Compound 96] : 0.0549
CCC/C=C/C(=O)N(C)[C@@H]1CC[C@@]2(O)[C@H]3Cc4ccc(O)c5c4[C@@]2(CCN3CC2CC2)[C@H]1O5 [Compound 100] : 0.811

Record summary for CN(C(=O)C#Cc1ccccc1)[C@H]1CC[C@@]2(O)[C@H]3Cc4ccc(O)c5c4[C@@]2(CCN3CC2CC2)[C@H]1O5 [Compound 84] : reported ED (500% urine output) = 0.0469

Lab note: measured ED (500% urine output) of COc1cccc(/C=C/C(=O)N(C)[C@@H]2CC[C@@]3(O)[C@H]4Cc5ccc(O)c6c5[C@@]3(CCN4CC3CC3)[C@H]2O6)c1 [Compound 63] was 0.309

Entry CN(C(=O)Cc1cccc([N+](=O)[O-])c1)[C@H]1CC[C@@]2(O)[C@H]3Cc4ccc(O)c5c4[C@@]2(CCN3CC2CC2)[C@H]1O5 [Compound 83] — recorded ED (500% urine output) = 2.99

Entry CN(C(=O)/C=C/c1cccc(F)c1)[C@@H]1CC[C@@]2(O)[C@H]3Cc4ccc(O)c5c4[C@@]2(CCN3CC2CC2)[C@H]1O5 [Compound 102] ; ED (500% urine output) = 0.0154

// data source = patent US6177438A
